Test system: SEM cells
Assay: cell viability relative to DMSO control; higher = less cytotoxic
Conditions: RPMI 5 mM glucose + 10% FBS; 48 h; 0.00702 µM
Consider the following molecules; for each one, report its cell viability.
Give bare numbers, in %.

- Given smiles: "CC1=CC=CC=C1CN2C(=O)C/3=C(/CCN(CC4=CC=CC=C4)C3)N\\5CC\\N=C25"
  Unit of measure: "%"
  cell viability: 114
- Given smiles: "C[C@@H](O)[C@@H]1[C@H]2[C@@H](C)\\C(=C(/N2C1=O)C(=O)OCOC(=O)C(C)(C)C)SC3CN(C3)/C4=N/CCS4"
  Unit of measure: "%"
  cell viability: 119
- Given smiles: "CC[C@H]1/C=C\\C=C/C[C@@H](C)[C@H](O)[C@@](C)(O)C(=O)[C@@H](C)[C@H](O)[C@@H](C)C(=O)[C@@H](C)[C@H](O)[C@@H](C)/C=C/C(=O)O[C@@H]2[C@H](C)[C@H](CC1)O[C@]1(CC[C@H](C)[C@H](C[C@@H](C)O)O1)[C@H]2C"
  Unit of measure: "%"
  cell viability: 92.5
- Given smiles: "CCn1c(-c2nonc2N)nc2cncc(CNC3CCNCC3)c21"
  Unit of measure: "%"
  cell viability: 124
- Given smiles: "Cn1c(Nc2ccc(C(F)(F)F)cc2)nc2cc(Oc3ccnc(-c4nc(C(F)(F)F)c[nH]4)c3)ccc21"
  Unit of measure: "%"
  cell viability: 124

Would you be so kind as to report cell viability for each listed record?
1. OC[C@H](Cc1ccccc1)Nc1nc(Oc2ccc3c(c2)CCC3)nc2c1ncn2Cc1ccc(-c2ccccc2)cc1
2. Cc1cccc(C#Cc2ccccc2)n1

91.7
109

Entry source: the supplement of paper PMC11451515
